# Stated Conditions: in acetone, 293.15 K
Where a SMILES comes first, the peptide text is derived from it. [ ]: non-standard residue; d: D form. pGlu = O=C1CC[C@@H](C(=O)O)N1; Thz = O=C(O)[C@@H]1CSCN1
Result Type: solubility (mole fraction)
In your answer, state the number alone without any accompanying words.

Query: solubility (mole fraction); subject: O=C1CC[C@@H](C(=O)N2CSC[C@H]2C(=O)O)N1 ([pGlu]-[Thz]-OH)
0.000121

* * *

# Stated Conditions: in methanol, 278.15 K
Where a SMILES comes first, the peptide text is derived from it. [ ]: non-standard residue; d: D form. pGlu = O=C1CC[C@@H](C(=O)O)N1; Thz = O=C(O)[C@@H]1CSCN1
Result Type: solubility (mole fraction)
In your answer, state the number alone without any accompanying words.

Query: solubility (mole fraction); subject: O=C1CC[C@@H](C(=O)N2CSC[C@H]2C(=O)O)N1 ([pGlu]-[Thz]-OH)
0.00121

* * *

# Stated Conditions: in methanol, 318.15 K
Where a SMILES comes first, the peptide text is derived from it. [ ]: non-standard residue; d: D form. pGlu = O=C1CC[C@@H](C(=O)O)N1; Thz = O=C(O)[C@@H]1CSCN1
Result Type: solubility (mole fraction)
In your answer, state the number alone without any accompanying words.

Query: solubility (mole fraction); subject: O=C1CC[C@@H](C(=O)N2CSC[C@H]2C(=O)O)N1 ([pGlu]-[Thz]-OH)
0.00437

* * *

# Stated Conditions: in acetonitrile, 278.15 K
Where a SMILES comes first, the peptide text is derived from it. [ ]: non-standard residue; d: D form. pGlu = O=C1CC[C@@H](C(=O)O)N1; Thz = O=C(O)[C@@H]1CSCN1
Result Type: solubility (mole fraction)
In your answer, state the number alone without any accompanying words.

Query: solubility (mole fraction); subject: O=C1CC[C@@H](C(=O)N2CSC[C@H]2C(=O)O)N1 ([pGlu]-[Thz]-OH)
0.000297

* * *

# Stated Conditions: in acetonitrile, 298.15 K
Where a SMILES comes first, the peptide text is derived from it. [ ]: non-standard residue; d: D form. pGlu = O=C1CC[C@@H](C(=O)O)N1; Thz = O=C(O)[C@@H]1CSCN1
Result Type: solubility (mole fraction)

Query: solubility (mole fraction); subject: O=C1CC[C@@H](C(=O)N2CSC[C@H]2C(=O)O)N1 ([pGlu]-[Thz]-OH)
0.000691

* * *

# Stated Conditions: in acetone, 288.15 K
Where a SMILES comes first, the peptide text is derived from it. [ ]: non-standard residue; d: D form. pGlu = O=C1CC[C@@H](C(=O)O)N1; Thz = O=C(O)[C@@H]1CSCN1
Result Type: solubility (mole fraction)

Query: solubility (mole fraction); subject: O=C1CC[C@@H](C(=O)N2CSC[C@H]2C(=O)O)N1 ([pGlu]-[Thz]-OH)
8.5e-05

* * *

# Stated Conditions: in ethanol, 318.15 K
Where a SMILES comes first, the peptide text is derived from it. [ ]: non-standard residue; d: D form. pGlu = O=C1CC[C@@H](C(=O)O)N1; Thz = O=C(O)[C@@H]1CSCN1
Result Type: solubility (mole fraction)
In your answer, state the number alone without any accompanying words.

Query: solubility (mole fraction); subject: O=C1CC[C@@H](C(=O)N2CSC[C@H]2C(=O)O)N1 ([pGlu]-[Thz]-OH)
0.00208
